biological target: SARS-CoV-2 Papain-like (PLpro) protease (Severe acute respiratory syndrome coronavirus 2, UniProt P0DTD1); assay: SARS-CoV-2 Papain-like (PLpro) protease biochemical enzyme inhibition assay (ubiquitin-fluorophore substrate, Ub-R110); conditions: Ub-R110 substrate; run in duplicate; read-out: PLpro IC50
Reported endpoint: IC50

*Q* // returns reported IC50 for input C[C@@H](C#Cc1nccs1)NC(=O)C(=O)NCc1ccccc1C(=O)NC1(c2cc(Cl)cc(-c3ncco3)c2)CC1 [Example 493]
*A* < 100 nM

*Q* Repeat with C[C@@H](C#Cc1ncccc1C(F)(F)F)NC(=O)C(=O)NCc1ccccc1C(=O)NC1(c2cc(F)cc(-c3cnn(C4CC4)c3)c2)CC1 [Example 142]
*A* 100 to 1000 nM

*Q* Again, but for C#CCNC(=O)C(=O)NCc1ccccc1C(=O)NC1(c2cc(-c3cnn(C4CC4)c3)ccc2Cl)CC1 [Example 384]
*A* < 100 nM

*Q* Check O=C(NCC#Cc1cccnc1)C(=O)NCc1ccccc1C(=O)NC1(c2ccc3ccccc3c2)CC1 [Example 170] too.
*A* 1000 to 10000 nM

*Q* One more compound: O=C(C#CCNC(=O)C(=O)NCc1ccccc1C(=O)NC1(c2ccc3ccccc3c2)CC1)NC1CC1 [Example 536]
*A* < 100 nM

*Q* Also check Cc1nnc(-c2cc(Cl)cc(C3(NC(=O)c4ccccc4CNC(=O)C(=O)NCC#N)CC3)c2)o1 [Example 483]
*A* 100 to 1000 nM

*Q* What about this compound? Cc1cccnc1C#C[C@H](C)NC(=O)C(=O)NCc1ccccc1C(=O)NC1(c2cc(F)cc(-c3cnn(C4CC4)c3)c2)CC1 [Example 266]
*A* < 100 nM

*Q* Can you check C[C@@H](C#Cc1ccc(C#N)cc1F)NC(=O)C(=O)NCc1ccccc1C(=O)NC1(c2ccc3nn(C)cc3c2)CC1 [Example 98] next?
*A* < 100 nM

*Q* Next compound up: O=C(NCC#Cc1ncccn1)C(=O)NCc1ccccc1C(=O)NC1(c2ccc3ccccc3c2)CC1 [Example 168]
*A* < 100 nM

*Q* Same for C#CCNC(=O)C(=O)NCc1ccccc1C(=O)NC1(c2cc(-c3c(C)cnn3C)cc(C(F)(F)F)c2)CC1 [Example 475]
*A* 100 to 1000 nM

---

target: SARS-CoV-2 Papain-like (PLpro) protease (Severe acute respiratory syndrome coronavirus 2); test: SARS-CoV-2 Papain-like (PLpro) protease biochemical enzyme inhibition assay (ubiquitin-fluorophore substrate, Ub-R110); conditions: Ub-R110 substrate; run in duplicate; read-out: PLpro IC50
pIC50: −log10 of the molar value.
Reported endpoint: pIC50

{"columns": ["Record smiles", "Reported result"],
 "data": [
  ["O=C(NC/C=C/C(=O)N1CCCCO1)C(=O)NCc1ccccc1C(=O)NC1(c2cccc3ccccc23)CC1", "6.00 to 7.00"],
  ["N#CCNC(=O)C(=O)NCc1ccccc1C(=O)NC1(c2cc(-c3cnn(C(F)F)c3)cc(C(F)(F)F)c2)CC1", "6.00 to 7.00"],
  ["C#CCNC(=O)C(=O)NCc1ccccc1C(=O)NC1(c2cc(F)cc(-c3cccs3)c2)CC1", "> 7.00"]
]}

*Q* I would be grateful if you could share the reported pIC50 for CC(C)(O)c1cccc(-c2cc(C3(NC(=O)c4ccccc4CNC(=O)C(=O)NCC#N)CC3)c3ccccc3c2)n1 .
*A* > 7.00

*Q* Repeat for the following compound: N#CCNC(=O)C(=O)NCc1ccccc1C(=O)NC1(c2cc(Cl)cc(-c3cnco3)c2)CC1
*A* > 7.00

*Q* Queued: CC#CCNC(=O)C(=O)NCc1ccccc1C(=O)NC1(c2cccc3ccccc23)CC1
*A* 5.00 to 6.00

*Q* Also, O=C(NC/C=C1\CCOC1=O)C(=O)NCc1ccccc1C(=O)NC1(c2cccc3ccccc23)CC1 please.
*A* > 7.00

---

biological target: SARS-CoV-2 Papain-like (PLpro) protease (Severe acute respiratory syndrome coronavirus 2, UniProt P0DTD1); assay: SARS-CoV-2 Papain-like (PLpro) protease biochemical enzyme inhibition assay (ubiquitin-fluorophore substrate, Ub-R110); conditions: Ub-R110 substrate; run in duplicate; read-out: PLpro IC50
Reported endpoint: IC50

Recorded IC50, per entry:
{"columns": ["Compound", "Reported result"],
 "data": [
  ["N#CC1CCCN1C(=O)C(=O)NCc1ccccc1C(=O)NC1(c2cccc3ccccc23)CC1 (stereo not shown) [Example 41]", "> 10000 nM"],
  ["C#CCNC(=O)C(=O)NCc1ccccc1C(=O)NC1(c2cc(Cl)c3nn(C4CC4)cc3c2)CC1 [Example 339]", "< 100 nM"],
  ["C[C@@H](C#Cc1ncc(F)cn1)NC(=O)C(=O)NCc1ccccc1C(=O)NC1(c2cc(F)cc(-c3cnn(C4CC4)c3)c2)CC1 [Example 144]", "< 100 nM"],
  ["O=C(NCC#Cc1ccc(F)cn1)C(=O)NCc1ccccc1C(=O)NC1(c2ccc3ccccc3c2)CC1 [Example 192]", "< 100 nM"],
  ["C[C@@H](NC(=O)c1ccccc1CNC(=O)C(=O)N1CCC(=O)N1)c1cccc2ccccc12 [Example 23]", "> 10000 nM"]
]}

*Q* // IC50 lookup, key: C#CCNC(=O)C(=O)NCc1ccccc1C(=O)NC1(c2cc(Cl)cc(-c3nnc(C)o3)c2)CC1 [Example 484]
*A* < 100 nM

*Q* Would you kindly repeat that for O=C(NCC#Cc1nccs1)C(=O)NCc1ccccc1C(=O)NC1(c2cccc3ccccc23)CC1 [Example 160] ?
*A* < 100 nM

---

biological target: SARS-CoV-2 Papain-like (PLpro) protease (Severe acute respiratory syndrome coronavirus 2); experiment: SARS-CoV-2 Papain-like (PLpro) protease biochemical enzyme inhibition assay (ubiquitin-fluorophore substrate, Ub-R110); conditions: Ub-R110 substrate; run in duplicate; read-out: PLpro IC50
pIC50: −log10 of the molar value.
Reported endpoint: pIC50

{"columns": ["Record smiles", "pIC50"],
 "data": [
  ["O=C(NCC#Cc1ccc(Cl)nn1)C(=O)NCc1ccccc1C(=O)NC1(c2ccc3ccccc3c2)CC1", "> 7.00"],
  ["O=C(NCC#CC(=O)N1CC(F)(F)C1)C(=O)NCc1ccccc1C(=O)NC1(c2ccc3ccccc3c2)CC1", "> 7.00"],
  ["N#CCCOC(=O)NCc1ccccc1C(=O)NC1(c2cc(Br)cc3ccccc23)CC1", "5.00 to 6.00"],
  ["Cn1cc2cc(C3(NC(=O)c4ccccc4CNC(=O)C(=O)NCC#Cc4ccc(C#N)cc4F)CC3)ccc2n1", "> 7.00"],
  ["COc1cnc(C#CCNC(=O)C(=O)NCc2ccccc2C(=O)NC2(c3ccc4ccccc4c3)CC2)cn1", "> 7.00"]
]}

*Q* Given the entry N#CN1CC(CCNC(=O)C(=O)NCc2ccccc2C(=O)NC2(c3cccc4ccccc34)CC2)C1 , what pIC50 was observed with SARS-CoV-2 Papain-like (PLpro) protease (Severe acute respiratory syndrome coronavirus 2)?
*A* 5.00 to 6.00

*Q* Follow-up item: Cc1nnc(-c2cc(-c3nnc(C)o3)cc(C3(NC(=O)c4ccccc4CNC(=O)C(=O)NCC#N)CC3)c2)o1
*A* 6.00 to 7.00

*Q* Repeat with C#CCNC(=O)C(=O)NCc1ccccc1C(=O)NC1(c2cc(F)c(F)c(-c3cnn(C4CC4)c3)c2)CC1
*A* > 7.00

*Q* Entry to check: Cn1ccc2c(C3(NC(=O)c4ccccc4CNC(=O)C(=O)NCC#N)CC3)cccc21
*A* 6.00 to 7.00

*Q* Next up: O=C(/C=C/CNC(=O)C(=O)NCc1ccccc1C(=O)NC1(c2cccc3ccccc23)CC1)NCC(F)(F)F
*A* 6.00 to 7.00

*Q* What do you have for N#CCNC(=O)C(=O)NCc1ccccc1C(=O)NC1(c2cc(Cl)cc(-n3cccn3)c2)CC1 ?
*A* > 7.00

---

tested on: SARS-CoV-2 replicon; assay: microbe, parasite or virus in culture; assay type: cell-based; conditions: Severe acute respiratory syndrome coronavirus 2, Huh-7
The following compounds are listed with their measured EC50 values.

{"columns": ["Record smiles", "Reported endpoint", "Reported result"],
 "data": [
  ["O=C(NCC#Cc1ncc(F)s1)C(=O)NCc1ccccc1C(=O)NC1(c2cc(F)cc(-c3cnn(C4CC4)c3)c2)CC1", "EC50", "< 1 µM"]
]}

*Q* Recorded EC50 of Cn1cnc(C#CCNC(=O)C(=O)NCc2ccccc2C(=O)NC2(c3ccc4ccccc4c3)CC2)n1 , please.
*A* < 1 µM

*Q* Try the compound C[C@@H](NC(=O)c1ccccc1CNC(=O)C(=O)NCC#N)c1cc(-c2cnn(C3CC3)c2)cc(C(F)(F)F)c1
*A* < 1 µM

*Q* Also need C[C@@H](C#Cc1nccs1)NC(=O)C(=O)NCc1ccccc1C(=O)NC1(c2ccc3ccccc3c2)CC1 , thanks.
*A* < 1 µM

*Q* Please do the same for CC(C)(O)CCc1cc(C2(NC(=O)c3ccccc3CNC(=O)C(=O)NCC#N)CC2)c2ccccc2c1 as well.
*A* 1 to 10 µM

*Q* // next record CC(C)(O)c1ccc(-c2cc(C3(NC(=O)c4ccccc4CNC(=O)C(=O)NCC#N)CC3)c3ccccc3c2)s1
*A* < 1 µM

*Q* Note, next up: C[C@@H](C#Cc1ccccc1C#N)NC(=O)C(=O)NCc1ccccc1C(=O)NC1(c2ccc3nn(C)cc3c2)CC1
*A* < 1 µM
